target: UniProtKB P21554; test: FLIPR calcium flux assay, agonist format, CB1; type: cell-based; conditions: Emax of reference agonist CP-55,940 as 100%
Sequence (P21554 whole entry): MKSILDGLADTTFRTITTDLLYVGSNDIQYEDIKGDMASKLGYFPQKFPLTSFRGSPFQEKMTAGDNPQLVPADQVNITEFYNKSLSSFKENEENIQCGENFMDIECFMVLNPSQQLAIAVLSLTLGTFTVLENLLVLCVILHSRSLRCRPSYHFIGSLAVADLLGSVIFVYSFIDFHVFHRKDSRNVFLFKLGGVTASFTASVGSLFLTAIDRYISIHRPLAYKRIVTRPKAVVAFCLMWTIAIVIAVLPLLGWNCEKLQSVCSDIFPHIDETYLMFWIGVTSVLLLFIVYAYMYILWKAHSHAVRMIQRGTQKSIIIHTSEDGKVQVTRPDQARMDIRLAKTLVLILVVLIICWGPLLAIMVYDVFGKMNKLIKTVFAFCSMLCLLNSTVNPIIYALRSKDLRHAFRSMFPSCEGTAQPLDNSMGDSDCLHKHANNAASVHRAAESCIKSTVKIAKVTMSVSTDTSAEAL
parameter: activation at 1 µM (%)

compound	readout number
CC(C)Cc1ccc([C@H](C)C(=O)N(C)CC[C@H](Oc2ccc(C(F)(F)F)cc2)c2ccccc2)cc1 [Compound 12b]	8.3
C[C@H](C(=O)N(C)CCC(Oc1ccc(C(F)(F)F)cc1)c1ccccc1)c1cccc(C(=O)c2ccccc2)c1 (some centres unmarked)	1.2
CC(C)Cc1ccc([C@H](C)C(=O)N(C)CCC(Oc2ccc(C(F)(F)F)cc2)c2ccccc2)cc1 (some centres unmarked)	4.1
COc1ccc2c(c1)c(CC(=O)NCC[C@@H](Oc1ccc(C(F)(F)F)cc1)c1ccccc1)c(C)n2C(=O)c1ccc(Cl)cc1	-0.5
CC(C)Cc1ccc([C@H](C)C(=O)NCC[C@@H](Oc2ccc(C(F)(F)F)cc2)c2ccccc2)cc1	3.2
CN(CCC(Oc1ccc(C(F)(F)F)cc1)c1ccccc1)C(=O)C1CCn2c(C(=O)c3ccccc3)ccc21 (centres unmarked)	0.9
O=C(c1ccccc1)c1ccc2n1CCC2C(=O)NCC[C@@H](Oc1ccc(C(F)(F)F)cc1)c1ccccc1 (some centres unmarked)	0.3
C[C@H](C(=O)N(C)CC[C@@H](Oc1ccc(C(F)(F)F)cc1)c1ccccc1)c1ccc(C(F)(F)F)cc1 [Compound 33d]	1.4
C[C@H](C(=O)NCC[C@@H](Oc1ccc(C(F)(F)F)cc1)c1ccccc1)c1cccc(C(=O)c2ccccc2)c1	4.2
CCc1ccc(C(C)C(=O)N(C)CC[C@H](Oc2ccc(C(F)(F)F)cc2)c2ccccc2)cc1 (some centres unmarked) [Compound 34b]	-1.9
CC(C)Cc1ccc([C@H](C)C(=O)N(C)CC[C@@H](Oc2ccc(C(F)(F)F)cc2)c2ccccc2)cc1 [Compound 12a]	3.6

###

Readings of inhibition at 1 µM for the listed compounds
biological target: GLP-1 receptor (Homo sapiens, UniProt P43220); test: FLIPR calcium flux assay, antagonist format, GLP-1; format: cell-based; conditions: 1 μM, reference ligand Glucagon at EC80 as 0% inhibition; read-out: % Inhibition Antagonist GLP-1
Sequence (P43220 24-463): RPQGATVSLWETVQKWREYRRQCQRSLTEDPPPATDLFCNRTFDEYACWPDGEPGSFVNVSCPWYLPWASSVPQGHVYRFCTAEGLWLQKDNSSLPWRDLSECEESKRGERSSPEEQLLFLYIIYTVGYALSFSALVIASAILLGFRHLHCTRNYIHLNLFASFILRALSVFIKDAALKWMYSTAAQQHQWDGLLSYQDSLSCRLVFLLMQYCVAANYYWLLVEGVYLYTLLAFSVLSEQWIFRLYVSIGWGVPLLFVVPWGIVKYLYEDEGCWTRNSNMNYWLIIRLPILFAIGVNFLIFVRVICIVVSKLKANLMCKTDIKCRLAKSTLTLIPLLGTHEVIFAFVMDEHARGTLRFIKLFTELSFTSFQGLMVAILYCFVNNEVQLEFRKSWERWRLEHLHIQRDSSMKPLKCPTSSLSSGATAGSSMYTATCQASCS

compound	unit of measure	inhibition at 1 µM
C[C@@H](C(=O)N(C)CC[C@H](Oc1ccc(C(F)(F)F)cc1)c1ccccc1)c1ccc(C(F)(F)F)cc1 [Compound 33e]	%	9.4
CC(C)Cc1cccc(C(C)C(=O)N(C)CC[C@H](Oc2ccc(C(F)(F)F)cc2)c2ccccc2)c1 (stereo partly shown) [Compound 35b]	%	0.3
C[C@H](C(=O)N(C)CCC(Oc1ccc(C(F)(F)F)cc1)c1ccccc1)c1cccc(C(=O)c2ccccc2)c1 (stereo partly shown)	%	17.2
CC(C)Cc1ccc(C2(C(=O)N(C)CC[C@H](Oc3ccc(C(F)(F)F)cc3)c3ccccc3)CC2)cc1 [Compound 36b]	%	5.5
C[C@H](C(=O)N(C)CC[C@H](Oc1ccc(C(F)(F)F)cc1)c1ccccc1)c1ccc(C(F)(F)F)cc1 [Compound 33f]	%	11.5
COc1ccc2c(c1)c(CC(=O)N(C)CCC(Oc1ccc(C(F)(F)F)cc1)c1ccccc1)c(C)n2C(=O)c1ccc(Cl)cc1 (stereo not shown)	%	-5.1

###

experiment: in vivo; parameters: species or system Sprague-Dawley rats; conditions: male, Sprague-Dawley, rat, po, 20 mg/kg
// reported bioavailability for each item listed

compound	bioavailability [%]
CC(C)Cc1ccc([C@H](C)C(=O)NCC[C@@H](Oc2ccc(C(F)(F)F)cc2)c2ccccc2)cc1	5.1
C[C@H](C(=O)NCC[C@@H](Oc1ccc(C(F)(F)F)cc1)c1ccccc1)c1cccc(C(=O)c2ccccc2)c1	14.8
CC(C)Cc1ccc([C@H](C)C(=O)N(C)CCC(Oc2ccc(C(F)(F)F)cc2)c2ccccc2)cc1 (stereo partly drawn)	6.5
